binders and their reported IC50 (µM), pseudotyped HIV-1BaL infection of HOS.CD4.CCR5 cells
# Assay System: HIV-1BaL envelope glycoprotein on pseudotyped virus (HIV-1 strain BaL)
# Assay Procedure: cell-based or functional assay
Where no end group is shown, it is not given here. [ ]: non-standard residue; d: D form.
Give the quantity in µM, number only.

Binder | Unit String | Readout Value
INI[Azp‑triazole‑ferrocene]WS-NH2 (Rink amide resin; also called INIPWS) [UM35] | µM | 17
INNI[Azp‑triazole‑ferrocene]W-NH2 (Rink amide resin; also called INNIPW) [UM15] | µM | 6.9
NNI[Azp‑triazole‑ferrocene]WS-NH2 (Rink amide resin; also called NNIPWS) [UM31] | µM | 36

We next turn to a different binder, shown below.
Lab note: measured IC50 (µM), pseudotyped HIV-1BaL infection of HOS.CD4.CCR5 cells of RINNI[Azp‑triazole‑ferrocene]W (also called RINNIPW) [UM12] was 6.8
